I'd appreciate it if you could supply Absorbance (450 nm) values for the items below.
# TESTED TARGET: recombinant cynomolgus monkey CD3ε/δ heterodimer (cynomolgus monkey) (UniProt Q95LI5)
# Sequence (Q95LI5 22-117, stated change not applied, chain 1 of 2): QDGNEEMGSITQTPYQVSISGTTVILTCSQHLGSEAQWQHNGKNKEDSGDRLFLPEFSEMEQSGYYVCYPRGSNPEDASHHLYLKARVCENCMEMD
# Sequence (Q95LI8 22-105, stated change not applied, chain 2 of 2, further chain): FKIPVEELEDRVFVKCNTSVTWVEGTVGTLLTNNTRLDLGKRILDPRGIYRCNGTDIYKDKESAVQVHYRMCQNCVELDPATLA
# ASSAY METHOD TEXT: ELISA, coated CD3ε/δ
Kindly provide the number alone.

Looking up D16 (antibody, human IgG1, lambda, L234A L235A, V domains shown) VH: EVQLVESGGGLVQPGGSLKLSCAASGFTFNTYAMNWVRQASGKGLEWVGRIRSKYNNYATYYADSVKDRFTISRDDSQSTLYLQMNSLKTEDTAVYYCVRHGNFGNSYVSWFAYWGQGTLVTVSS VL: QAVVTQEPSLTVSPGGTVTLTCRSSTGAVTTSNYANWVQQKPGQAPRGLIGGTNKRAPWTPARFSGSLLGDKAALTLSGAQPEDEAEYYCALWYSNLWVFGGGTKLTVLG , I found its Absorbance (450 nm) recorded as 2.87

Looking up B06 (antibody, human IgG1, lambda, L234A L235A, V domains shown) VH: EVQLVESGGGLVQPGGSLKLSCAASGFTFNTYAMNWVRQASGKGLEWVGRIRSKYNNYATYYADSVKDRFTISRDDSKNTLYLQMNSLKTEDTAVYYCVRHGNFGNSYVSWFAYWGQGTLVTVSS VL: QAVVTQEPSLTVSPGGTVTLTCRSSTGAVTTSNYANWFQQKPGQAPRGLIYGTNKRAPWTPARFSGSLLGDKAALTLSGAQPEDEAEYYCALWYSNLWVFGGGTKLTVLG , I found its Absorbance (450 nm) recorded as 0.143

Looking up G05 (antibody, human IgG1, lambda, L234A L235A, V domains shown) VH: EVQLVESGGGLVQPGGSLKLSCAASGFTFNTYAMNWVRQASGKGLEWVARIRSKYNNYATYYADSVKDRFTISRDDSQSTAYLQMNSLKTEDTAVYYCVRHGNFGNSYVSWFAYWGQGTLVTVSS VL: QAVVTQEPSLTVSPGGTVTLTCRSSTGAVTTSNYANWFQQKPGQAPRGLIYGTNKRAPWTPARFSGSLLGGKAALTLSGAQPEDEAEYYCALWYSNLWVFGGGTKLTVLG , I found its Absorbance (450 nm) recorded as 0.072

Looking up C05 (antibody, human IgG1, lambda, L234A L235A, V domains shown) VH: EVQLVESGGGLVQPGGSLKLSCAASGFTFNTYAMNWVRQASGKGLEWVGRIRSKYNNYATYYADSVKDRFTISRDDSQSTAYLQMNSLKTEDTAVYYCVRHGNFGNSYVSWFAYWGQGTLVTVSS VL: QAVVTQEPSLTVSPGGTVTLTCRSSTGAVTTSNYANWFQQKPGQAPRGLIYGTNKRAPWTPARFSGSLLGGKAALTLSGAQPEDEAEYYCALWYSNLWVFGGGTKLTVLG , I found its Absorbance (450 nm) recorded as 0.128

Looking up E07 (antibody, human IgG1, lambda, L234A L235A, V domains shown) VH: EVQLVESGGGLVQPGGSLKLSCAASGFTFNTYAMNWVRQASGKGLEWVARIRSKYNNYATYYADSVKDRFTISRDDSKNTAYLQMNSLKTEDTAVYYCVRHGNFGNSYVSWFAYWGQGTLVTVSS VL: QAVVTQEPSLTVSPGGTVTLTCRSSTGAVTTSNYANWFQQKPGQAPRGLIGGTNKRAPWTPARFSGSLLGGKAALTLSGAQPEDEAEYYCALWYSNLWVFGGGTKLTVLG , I found its Absorbance (450 nm) recorded as 0.115
